- test.description: chemical genetic growth profiling, strain panel (AID 1159580);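 further: tested at 20 µM; growth read once vehicle control cultures reached saturation at 30 °C; 1 = growth at the plate median or of vehicle wells; lower values mean less growth of the strain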
- setup.conditions: S. cerevisiae deletion strains, growth OD, locus YPL055C, strain LGE1
Screen size: about 5,500 compounds; about 2,000 (36%) were called active. Not shown: some 18% with an inconclusive outcome. No stated cut-off is given here; in the data, active means normalized growth mostly below about 0.91 (no sharp cut-off); inconclusive means no clear call, values can overlap the other calls; inactive means mostly above about 0.92. The list shows a part of the results.
Just give me one of these, please: 1 for active, -1 for inactive

# input Just curious, what result did "O=c1c2ccccc2nc2n1CCc1c-2[nH]c2ccccc12" get here?
# output -1

# input Please answer likewise for Nc1c2ccccc2nc2ccccc12 (tested in a mixture with another compound)
# output 1

# input Next: "COc1ccc(Oc2cc(C)nc3ccccc23)cc1"
# output -1

# input Quick one: "COc1ccc2c3c([nH]c2c1)C(C)=NCC3"
# output -1

# input "CC(=O)NCc1c(I)c(NC(C)=O)c(I)c(C(=O)O)c1I" ?
# output -1

# input What about "O=c1cc(CO)occ1O" ?
# output -1

# input Queued: "NNc1nncc2ccccc12"
# output -1

###

- test.description: chemical genetic growth profiling, strain panel (AID 1159580);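 further: tested at 20 µM; growth read once vehicle control cultures reached saturation at 30 °C; 1 = growth at the plate median or of vehicle wells; lower values mean less growth of the strain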
- setup.conditions: S. cerevisiae deletion strains, growth OD, locus YOR184W, strain ser1, hits give low values
The whole screen tested about 5,500 compounds, of which about 2,000 (36%) were called active. Roughly 18% stayed inconclusive and do not appear here. The list shows a part of the results.
measured.endpoint: normalized growth

# input Endpoint output: normalized growth of "COc1ccc2c(c1)c(CC(=O)O)c(C)n2C(=O)c1ccc(Cl)cc1" . Value?
# output 0.988 (inactive)

# input Then CC(C)CC(N(C)C)C1(c2ccc(Cl)cc2)CCC1 (stereo unspecified) ?
# output 1.03 (inactive)

# input Could you do the same for "CC(C)(C#N)O[C@@H]1O[C@H](CO)[C@@H](O)[C@H](O)[C@H]1O" , please?
# output 1.03 (inactive)

# input Likewise for O=C(O)/C=C1\CCCc2ccccc2C1O (stereo unspecified) ?
# output 0.985 (inactive)

# input Subsequent entry: "Cc1ccnc(NS(=O)(=O)c2ccc(N)cc2)n1"
# output 1.03 (inactive)

# input Param item: "Cc1cc(C(C)(C)C)c(O)c(C(C)(C)C)c1"
# output 1.01 (inactive)

# input Follow-up entry: "Cc1cc(O)cc(O)c1C(=O)O"
# output 1.09 (inactive)

# input Moving on to "CCCOc1ccccc1-c1nc2n[nH]nc2c(=O)[nH]1"
# output 1.01 (inactive)

# input Next record, please: CC1(C)CC[C@]2(C(=O)O)CC[C@]3(C)C(=CCC4[C@@]5(C)CC[C@H](O)[C@@](C)(CO)C5CC[C@]43C)C2C1 (stereo partly specified)
# output 1.01 (inactive)

# input Try COc1c(CC(=O)c2cc3c(cc2O)OC(C)(C)C(O)C3)ccc2c1C=CC(C)(C)O2 (stereo unspecified) next.
# output 0.851 (active)

# input What would you report for CC(=O)NC(C(=O)O)C(C)(C)SN=O (stereo unspecified) ?
# output 0.978 (inactive)

# input Proceed to "CCCCCCCCCCCC[C@H](C(=O)O)[C@@H](C)C(=O)O"
# output 1.04 (inactive)

# input Follow-up entry: COc1cccc(OC)c1OCCNCC1COc2ccccc2O1 (stereo unspecified)
# output 0.954 (inactive)

# input Another molecule: COC(=O)C[C@H]1C(C)(C)C(=O)[C@@H]2CC3C4=CC(=O)O[C@@H](c5ccoc5)[C@]4(C)CCC3[C@@]1(C)C2=O (stereo partly specified)
# output 0.948 (inactive)

# input Same read-out for "Nc1c2c(nc3ccccc13)CCCC2" ?
# output 1.04 (inactive)

# input Next molecule: "CC(C)(Sc1cc(C(C)(C)C)c(O)c(C(C)(C)C)c1)Sc1cc(C(C)(C)C)c(O)c(C(C)(C)C)c1"
# output 1.03 (inactive)

# input Next: "COC(=O)Nc1nc2ccc(C(=O)c3ccccc3)cc2[nH]1"
# output 0.717 (active)

# input What do you have for C[C@@H]1OC(O[C@H]2C(O[C@H]3CC[C@@]4(C)C(CC[C@]5(C)C4CC=C4C6CC(C)(C)CC[C@]6(C(=O)O)CC[C@]45C)[C@]3(C)CO)OC[C@H](O)[C@@H]2O)[C@H](O)[C@H](O)[C@H]1O (stereo partly specified) ?
# output 0.0762 (active)

# input Quick one: Nc1c2ccccc2nc2ccccc12 (tested in a mixture with another compound)
# output 0.535 (active)

# input Consider next the molecule N#CC(O[C@@H]1O[C@H](CO[C@@H]2O[C@H](CO)[C@@H](O)[C@H](O)[C@H]2O)[C@@H](O)[C@H](O)[C@H]1O)c1ccccc1 (stereo partly specified) in the same way.
# output 1.04 (inactive)

# input // next record "Cc1cc(O)cc(=O)o1"
# output 0.992 (inactive)

# input // repeat for "COC(=O)Nc1nc2ccc(Sc3ccccc3)cc2[nH]1" and report
# output 0.984 (inactive)

# input What do we get for "COc1ccc2c(c1)c(CC(=O)OCC(=O)O)c(C)n2C(=O)c1ccc(Cl)cc1" ?
# output 1.02 (inactive)

# input Also check CC(=O)/C=C\[C@@H]1[C@@]2(C)CCCC(C)(C)C2CC[C@@]1(C)O (stereo partly specified)
# output 0.993 (inactive)

# input What about CCC(C)C(=O)O[C@H]1[C@H](O)C2C(CN3CC(C)CCC3[C@@]2(C)O)C2C[C@]34O[C@]5(O)C(OC(=O)C(C)(O)CC)CC[C@@]3(C)C5C(OC(C)=O)[C@@H](OC(C)=O)C4[C@@]21O (stereo partly specified) ?
# output 0.982 (inactive)

# input Here is the next molecule: "CCOP(=S)(OCC)Oc1nc(Cl)c(Cl)cc1Cl"
# output 0.99 (inactive)
